Molecular target: HLA-A*03:01
Test: IEDB peptide-MHC binding, purified MHC/direct/fluorescence; filed as Kd, often an IC50 or EC50 that approximates it; bounds were set here for any values at or beyond the usual limits of such assays
Details: source organism: Francisella tularensis subsp. holarctica LVS
readout-name: Kd
Phrase the answer as number then unit, nothing more needed.

Note down Kd recorded for AIYESNIGY
8.3 nM

----------
Biological target: HLA-A*02:03
Assay: IEDB peptide-MHC binding, purified MHC/direct/fluorescence; filed as Kd, often an IC50 or EC50 that approximates it; bounds were set here for any values at or beyond the usual limits of such assays
Conditions: source organism: Mycobacterium tuberculosis str. Haarlem
readout-name: Kd

Note down Kd recorded for LPVEYLQVP
≥ 20 µM

----------
Target: HLA-B*08:01
Assay: IEDB peptide-MHC binding, purified MHC/competitive/fluorescence; bounds were set here for any values at or beyond the usual limits of such assays
Details: source organism: Vaccinia virus Copenhagen
pIC50: −log10 of the molar value.
readout-name: pIC50

Note down pIC50 recorded for ERQLAKAII
≤ 3.96

----------
Biological target: HLA-B*57:01
Experiment: IEDB peptide-MHC binding, purified MHC/competitive/fluorescence; filed as Kd, often an IC50 or EC50 that approximates it; bounds were set here for any values at or beyond the usual limits of such assays
Conditions: source organism: Mycobacterium tuberculosis variant bovis BCG str. Pasteur 1173P2
readout-name: Kd

Note down Kd recorded for DEGFHAATV
≥ 20 µM

----------
Molecular target: HLA-B*08:01
Assay: IEDB peptide-MHC binding, purified MHC/direct/fluorescence; filed as Kd, often an IC50 or EC50 that approximates it; bounds were set here for any values at or beyond the usual limits of such assays
Settings: source organism: Campylobacter jejuni RM1221
pKd: −log10 of the molar value.
readout-name: pKd

Note down pKd recorded for KNDAVYIGY
≤ 4.70

----------
Molecular target: HLA-A*03:01
Experiment: IEDB peptide-MHC binding, purified MHC/competitive/radioactivity; filed as Kd, often an IC50 or EC50 that approximates it; bounds were set here for any values at or beyond the usual limits of such assays
Settings: source organism: Hepacivirus hominis
pKd: −log10 of the molar value.
readout-name: pKd

Note down pKd recorded for RNWAHSSL
≤ 4.06

----------
Biological target: HLA-B*53:01
Assay: IEDB peptide-MHC binding, purified MHC/competitive/radioactivity; filed as Kd, often an IC50 or EC50 that approximates it; bounds were set here for any values at or beyond the usual limits of such assays
Details: source organism: Vaccinia virus WR
readout-name: pKd
Entry type: numeric. Quantity: pKd, the -log10 of concentration in molar units.

biopolymer_sequence=DPEKFNARM readout_name=pKd result_value=5.89

State measured pKd of the sequence TPNNLNKIQL with HLA-B*53:01.
5.53

State measured pKd of the sequence MPYNILDRII with HLA-B*53:01.
7.34

State measured pKd of the sequence QIFEVYWYL with HLA-B*53:01.
5.85

State measured pKd of the sequence RLLIWAYLSK with HLA-B*53:01.
4.98

State measured pKd of the sequence MPEKRNVVV with HLA-B*53:01.
6.40

----------
Biological target: HLA-A*33:01
Test: IEDB peptide-MHC binding, purified MHC/competitive/radioactivity; filed as Kd, often an IC50 or EC50 that approximates it; bounds were set here for any values at or beyond the usual limits of such assays
Conditions: source organism: Vaccinia virus WR
# criterion met = Kd below 3 µM (exclusive); criterion not met = Kd at/above 3 µM

Solved cases (4 shown):
biopolymer_sequence=DFRNRYEDY discrete_label="criterion met"
biopolymer_sequence=IIVNNQESNK discrete_label="criterion not met"
biopolymer_sequence=HLKVALYRR discrete_label="criterion met"
biopolymer_sequence=GTSNWTGNY discrete_label="criterion not met"

API: query returns whether the sequence falls strictly under 3 µM in Kd. Query: LFVKKMLPK
criterion not met

API: query returns whether the sequence falls strictly under 3 µM in Kd. Query: TFIMLEGETK
criterion not met

API: query returns whether the sequence falls strictly under 3 µM in Kd. Query: NFPQHVITK
criterion not met
